Just for reference, PubChem BioAssay (NCI) is where these values come from.

- Tested on: SF-268 CNS
- Test Details: NCI tumour cell line growth inhibition, 48 h
I'd be grateful if you could share measured GI50 for these entries.

Find the recorded GI50 belonging to `Clc1nc(Cl)c2c(ncn2C/C=C\Cn2cnc3c(Cl)nc(Cl)nc32)n1` and report it.
1740 nM

// repeat for CC(=O)O[C@@H]1CC2C(C)(C)CCCC2(C)C2=C1C(=O)C(C(C)C)=CC2=O (stereo partly specified) and report
1390 nM

# iterate: `Nc1cc(N)c(N)cc1N`
3060 nM

Record: `CN(C)C(=S)N=Nc1c(O)[nH]c2ccccc12`
593 nM

Could you do the same for `COc1ccc(-c2cn(-c3ccccc3)c(-c3ccccc3)n2)cc1OC` , please?
3350 nM

Moving on to the next compound: `CN(C)c1ccc2cc(-c3ccccc3F)c(N)nc2c1`
3890 nM
